biological target: cloned KOR (Rattus norvegicus, UniProt P34975); test: [35S]GTPγS assay at KOR; details: SEM
Sequence (P34975 whole entry): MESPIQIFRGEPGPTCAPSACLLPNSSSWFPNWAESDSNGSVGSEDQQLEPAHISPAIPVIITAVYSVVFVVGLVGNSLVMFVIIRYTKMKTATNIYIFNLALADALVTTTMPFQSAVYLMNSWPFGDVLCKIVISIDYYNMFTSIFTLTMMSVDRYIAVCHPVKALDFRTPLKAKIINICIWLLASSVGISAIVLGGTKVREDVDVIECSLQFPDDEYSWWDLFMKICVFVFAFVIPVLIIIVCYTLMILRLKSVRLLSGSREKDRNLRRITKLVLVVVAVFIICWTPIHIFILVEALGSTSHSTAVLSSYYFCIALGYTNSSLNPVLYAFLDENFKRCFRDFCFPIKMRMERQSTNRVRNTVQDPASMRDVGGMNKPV
Where a SMILES comes first, the peptide text is derived from it.
Collected pEC50 values appear next to each entry.
Remember, pEC50 is on a log scale: it is -log10 of the molar concentration.

Answered examples (2):
[[record]]
compound = "CC(C)C[C@H](NC(=O)[C@H](Cc1ccccc1)NC(=O)CNC(=O)CNC(=O)[C@H](C)N)C(=O)N[C@@H](CCCNC(=N)N)C(=O)N[C@@H](CCCNC(=N)N)C(=O)N[C@@H](CCC(N)=O)C(=O)N[C@@H](Cc1ccccc1)C(=O)N[C@@H](CCCCN)C(=O)N[C@H](C(=O)N[C@H](C(=O)N[C@H](C(N)=O)[C@@H](C)O)C(C)C)C(C)C [Compound 1] (H-AGGFLRRQFKVVT-NH2)"
endpoint = "pEC50"
readout_number = 5.58

[[record]]
compound = "CC(C)[C@H](NC(=O)[C@H](CCCCN)NC(=O)[C@H](Cc1ccccc1)NC(=O)[C@H](CCC(N)=O)NC(=O)[C@H](CCCNC(=N)N)NC(=O)[C@H](CCCNC(=N)N)NC(=O)[C@H](C)NC(=O)[C@H](Cc1ccccc1)NC(=O)CNC(=O)CNC(=O)[C@@H](N)Cc1ccc(O)cc1)C(=O)N[C@H](C(=O)N[C@H](C(N)=O)[C@@H](C)O)C(C)C [Compound 3] (H-YGGFARRQFKVVT-NH2)"
endpoint = "pEC50"
readout_number = 6.96


# input for lookup
Ask | Fill in the blank: the reported pEC50 of CC(C)C[C@H](NC(=O)[C@H](Cc1ccccc1)NC(=O)CNC(=O)CNC(=O)[C@@H](N)Cc1ccc(O)cc1)C(=O)N[C@@H](CCCNC(=N)N)C(=O)N[C@@H](CCCNC(=N)N)C(=O)N[C@@H](CCC(N)=O)C(=O)N[C@@H](Cc1ccccc1)C(=O)N[C@@H](C)C(=O)N[C@H](C(=O)N[C@H](C(=O)N[C@H](C(N)=O)[C@@H](C)O)C(C)C)C(C)C [Compound 8] (H-YGGFLRRQFAVVT-NH2) is ____.
Reply | 8.20

---

target: cloned rat MOR (Rattus norvegicus, UniProt P33535)
Sequence (P33535 whole entry): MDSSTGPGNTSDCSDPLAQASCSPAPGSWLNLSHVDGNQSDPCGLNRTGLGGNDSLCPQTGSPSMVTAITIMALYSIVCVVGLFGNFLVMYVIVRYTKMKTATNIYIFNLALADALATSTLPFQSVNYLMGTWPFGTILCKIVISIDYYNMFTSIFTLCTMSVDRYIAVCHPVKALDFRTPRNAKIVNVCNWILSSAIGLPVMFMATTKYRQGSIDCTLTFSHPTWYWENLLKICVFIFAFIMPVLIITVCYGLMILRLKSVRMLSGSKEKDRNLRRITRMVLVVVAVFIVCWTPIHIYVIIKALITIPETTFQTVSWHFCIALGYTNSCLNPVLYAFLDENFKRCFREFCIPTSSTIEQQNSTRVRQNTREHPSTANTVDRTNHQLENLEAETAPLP
pKi: −log10 of the molar value. Where a SMILES comes first, the peptide text is derived from it.
Classification field: enter 1 for pKi values not below 8, 0 for values below it.

[[record]]
compound = "CC(C)[C@H](NC(=O)[C@H](CCCCN)NC(=O)[C@H](Cc1ccccc1)NC(=O)[C@H](CCC(N)=O)NC(=O)[C@H](CCCNC(=N)N)NC(=O)[C@H](CCCNC(=N)N)NC(=O)[C@H](C)NC(=O)[C@H](Cc1ccccc1)NC(=O)CNC(=O)CNC(=O)[C@@H](N)Cc1ccc(O)cc1)C(=O)N[C@H](C(=O)N[C@H](C(N)=O)[C@@H](C)O)C(C)C [Compound 3] (H-YGGFARRQFKVVT-NH2)"
assigned_label = 0

[[record]]
compound = "CC(C)C[C@H](NC(=O)[C@H](Cc1ccccc1)NC(=O)CNC(=O)CNC(=O)[C@@H](N)Cc1ccc(O)cc1)C(=O)N[C@@H](CCCNC(=N)N)C(=O)N[C@@H](CCCNC(=N)N)C(=O)N[C@@H](CCC(N)=O)C(=O)N[C@@H](Cc1ccccc1)C(=O)N[C@@H](C)C(=O)N[C@H](C(=O)N[C@H](C(=O)N[C@H](C(N)=O)[C@@H](C)O)C(C)C)C(C)C [Compound 8] (H-YGGFLRRQFAVVT-NH2)"
assigned_label = 0


Now, please, on to the next compound.
Ask | Answer whether pKi of CC(C)C[C@H](NC(=O)[C@H](Cc1ccccc1)NC(=O)CNC(=O)CNC(=O)[C@@H](N)Cc1ccc(O)cc1)C(=O)N[C@@H](CCCNC(=N)N)C(=O)N[C@@H](CCCNC(=N)N)C(=O)N[C@@H](C)C(=O)N[C@@H](Cc1ccccc1)C(=O)N[C@@H](CCCCN)C(=O)N[C@H](C(=O)N[C@H](C(=O)N[C@H](C(N)=O)[C@@H](C)O)C(C)C)C(C)C [Compound 6] (H-YGGFLRRAFKVVT-NH2) is greater than or equal to 8.
Reply | 1

---

Overview of reported EC50 across a group of compounds:
target: cloned KOR (Rattus norvegicus, UniProt P34975); assay: [35S]GTPγS assay at KOR; assay type: biochemical; details: SEM
Where a SMILES comes first, the peptide text is derived from it.
State just the number; it will be interpreted in nM.

For orientation, consider the following solved cases.
[[record]]
compound = "CC(C)C[C@H](NC(=O)[C@H](C)NC(=O)CNC(=O)CNC(=O)[C@@H](N)Cc1ccc(O)cc1)C(=O)N[C@@H](CCCNC(=N)N)C(=O)N[C@@H](CCCNC(=N)N)C(=O)N[C@@H](CCC(N)=O)C(=O)N[C@@H](Cc1ccccc1)C(=O)N[C@@H](CCCCN)C(=O)N[C@H](C(=O)N[C@H](C(=O)N[C@H](C(N)=O)[C@@H](C)O)C(C)C)C(C)C [Compound 2] (H-YGGALRRQFKVVT-NH2)"
endpoint = "EC50"
units_symbol = "nM"
readout_number = 1180

[[record]]
compound = "CC(C)C[C@H](NC(=O)[C@H](Cc1ccccc1)NC(=O)CNC(=O)CNC(=O)[C@@H](N)Cc1ccc(O)cc1)C(=O)N[C@@H](CCCNC(=N)N)C(=O)N[C@@H](CCCNC(=N)N)C(=O)N[C@@H](CCC(N)=O)C(=O)N[C@@H](Cc1ccccc1)C(=O)N[C@@H](CCCCN)C(=O)N[C@@H](C)C(=O)N[C@H](C(=O)N[C@H](C(N)=O)[C@@H](C)O)C(C)C [Compound 9] (H-YGGFLRRQFKAVT-NH2)"
endpoint = "EC50"
units_symbol = "nM"
readout_number = 8.79


Here is another compound to look at.
Ask | Recall the recorded EC50 for CC(C)C[C@H](NC(=O)[C@H](Cc1ccccc1)NC(=O)CNC(=O)CNC(=O)[C@@H](N)Cc1ccc(O)cc1)C(=O)N[C@@H](CCCNC(=N)N)C(=O)N[C@@H](CCCNC(=N)N)C(=O)N[C@@H](C)C(=O)N[C@@H](Cc1ccccc1)C(=O)N[C@@H](CCCCN)C(=O)N[C@H](C(=O)N[C@H](C(=O)N[C@H](C(N)=O)[C@@H](C)O)C(C)C)C(C)C [Compound 6] (H-YGGFLRRAFKVVT-NH2) with cloned KOR (Rattus norvegicus, UniProt P34975) and state it.
Reply | 20.2

---

Recorded below: Ki, system UniProtKB P33535.
Where a SMILES comes first, the peptide text is derived from it.
Expressed in nM, but write only the number.

Ask | I am curious: what Ki value has been reported for CC(C)C[C@H](NC(=O)[C@H](C)NC(=O)CNC(=O)CNC(=O)[C@@H](N)Cc1ccc(O)cc1)C(=O)N[C@@H](CCCNC(=N)N)C(=O)N[C@@H](CCCNC(=N)N)C(=O)N[C@@H](CCC(N)=O)C(=O)N[C@@H](Cc1ccccc1)C(=O)N[C@@H](CCCCN)C(=O)N[C@H](C(=O)N[C@H](C(=O)N[C@H](C(N)=O)[C@@H](C)O)C(C)C)C(C)C [Compound 2] (H-YGGALRRQFKVVT-NH2) ?
Reply | 1040

Ask | Give its Ki value. Item: CC(C)C[C@H](NC(=O)[C@H](Cc1ccccc1)NC(=O)CNC(=O)CNC(=O)[C@@H](N)Cc1ccc(O)cc1)C(=O)N[C@@H](CCCNC(=N)N)C(=O)N[C@@H](CCCNC(=N)N)C(=O)N[C@@H](CCC(N)=O)C(=O)N[C@@H](C)C(=O)N[C@@H](CCCCN)C(=O)N[C@H](C(=O)N[C@H](C(=O)N[C@H](C(N)=O)[C@@H](C)O)C(C)C)C(C)C [Compound 7] (H-YGGFLRRQAKVVT-NH2)
Reply | 3.76

Ask | For the compound CC(C)C[C@H](NC(=O)[C@H](Cc1ccccc1)NC(=O)CNC(=O)CNC(=O)[C@@H](N)Cc1ccc(O)cc1)C(=O)N[C@@H](C)C(=O)N[C@@H](CCCNC(=N)N)C(=O)N[C@@H](CCC(N)=O)C(=O)N[C@@H](Cc1ccccc1)C(=O)N[C@@H](CCCCN)C(=O)N[C@H](C(=O)N[C@H](C(=O)N[C@H](C(N)=O)[C@@H](C)O)C(C)C)C(C)C [Compound 4] (H-YGGFLARQFKVVT-NH2) , what Ki is on record?
Reply | 14.1

Ask | Could you tell me which Ki is on file for CC(C)C[C@H](NC(=O)[C@H](Cc1ccccc1)NC(=O)CNC(=O)CNC(=O)[C@@H](N)Cc1ccc(O)cc1)C(=O)N[C@@H](CCCNC(=N)N)C(=O)N[C@@H](CCCNC(=N)N)C(=O)N[C@@H](CCC(N)=O)C(=O)N[C@@H](Cc1ccccc1)C(=O)N[C@@H](CCCCN)C(=O)N[C@H](C(=O)N[C@H](C(=O)N[C@H](C(N)=O)[C@@H](C)O)C(C)C)C(C)C [Dyn B amide, reference compound] ?
Reply | 8.05

Ask | Given the entry CC(C)C[C@H](NC(=O)[C@H](Cc1ccccc1)NC(=O)CNC(=O)CNC(=O)[C@H](C)N)C(=O)N[C@@H](CCCNC(=N)N)C(=O)N[C@@H](CCCNC(=N)N)C(=O)N[C@@H](CCC(N)=O)C(=O)N[C@@H](Cc1ccccc1)C(=O)N[C@@H](CCCCN)C(=O)N[C@H](C(=O)N[C@H](C(=O)N[C@H](C(N)=O)[C@@H](C)O)C(C)C)C(C)C [Compound 1] (H-AGGFLRRQFKVVT-NH2) , report its measured Ki.
Reply | 651
